Origin of measurements: PubChem BioAssay (NCI)

# System: UACC-62 melanoma
# method_summary: NCI-60 one-dose screen, 48 h (100 = growth as untreated, 0 = no growth, -100 = all killed)
# study_conditions: 10 µM unless noted
This is part of a sample that, as a whole, favours compounds with a hit. Of some 83,000 tested, about 20% had one in any assay.
Hi there, I'd appreciate the recorded growth for every entry that follows.
Numbers only, in %.

Sample records with growth:
smiles_data	measured_on	growth / %
C[N+](C)(CCCCCC[N+](C)(C)C1c2ccccc2-c2ccccc21)C1c2ccccc2-c2ccccc21	UACC-62 melanoma	108
O=C1C(Cl)=C(Nc2ccc(S(=O)(=O)c3ccc(NC4=C(Cl)C(=O)c5ccccc5C4=O)cc3)cc2)C(=O)c2ccccc21	UACC-62 melanoma	12.5
Brc1ccc2[nH]cc(-c3nc(-c4c[nH]c5ncccc45)cs3)c2c1	UACC-62 melanoma	41.9

Please examine the following record next.
Task: Suppose we examine the compound `CC1(C)[C@@H](O)CC[C@]2(C)[C@H]3CC[C@@H]4[C@H]5[C@H](C(=O)/C=C/c6ccc(C(F)(F)F)cc6)CC[C@]5(CO)CC[C@@]4(C)[C@]3(C)CC[C@@H]12` ; what growth value has been reported?
Result: 36.5
